system: TNF-α; assay: TNF-α production by Aa Y4 LPS-stimulated PBMCs (ELISA); assay type: cell-based, human; details: PBMCs pre-treated 2 hrs with 1×10^−4M anti-oxidant, then LPS 18 hrs
PROPERTY LABEL: TNF-α production

COMPOUND | TARGET OF ASSAY | REPORTED RESULT
O=C(CCc1ccc(O)cc1)c1c(O)cc(O)cc1O | TNF-α | Significant inhibition
Oc1ccc(C=Cc2cc(O)cc(O)c2)cc1 | TNF-α | Significant inhibition
COc1ccc([C@@H]2CC(=O)c3c(O)cc(O)cc3O2)cc1O | TNF-α | Significant inhibition
